# target-of-assay: SARS-COV-2 RBD protein with His-tag, purified by recombinant expression in Pichia pastoris (SARS-COV-2), P0DTC2
# experimental-details: SPR at 25 C; His-tagged RBD captured by anti-His tag, peptide flowed over
pKd: −log10 of the molar value.
This section presents binders with their documented pKd values.

{"binder": "QEQAQTYLDGYNKTYQDLVYKDNLAQWTLNT (modifications not checked) [peptide2 (WP_072363071.1:30-60 M2 family metallopeptidase [Chitinophaga sancti])]", "pKd": "11.39 to 11.45"}

Let's switch to this binder now.
Any idea what pKd was measured for EENAKTFLNNFNQEAEDLSYQSSLASWNYNT (modifications not checked) [peptide4 (BAB40431.1:22-52 angiotensin-converting enzyme-related carboxypeptidase [Mus musculus])] ?
11.09 to 11.90

Values compiled from patent US20260167674A1.
